Cited source: paper PMC6225228

Hi there, I'd appreciate the recorded MIC for every entry that follows.
Tested on: Enterococcus sp. J 14365/08
experimental-protocol: Antibacterial microdilution broth, EF
Assay type: cell-based
cond: Enterococcus, SP.J14365/08, 48 h, read-out: MIC EF

// each molecule listed below needs its MIC
1. O=C(Nc1cnccn1)c1cccc(C(F)(F)F)c1
2. CC(=O)Oc1cccc(C(=O)Nc2cnccn2)c1
3. CC(=O)Oc1cccc(C(=O)Nc2cnc(Cl)cn2)c1
4. O=C(Nc1cnccn1)c1cccc(O)c1
5. O=C(Nc1cnc(Cl)cn1)c1ccc(O)cc1

Response:
> 125 µM
> 500 µM
> 125 µM
> 500 µM
> 500 µM

###

System: Lichtheimia corymbifera 272
experimental-protocol: Antifungal microdilution broth, LC
Format: cell-based
cond: Lichtheimia corymbifera, 272, 48 h, read-out: MIC LC
Hi there, I'd appreciate the recorded MIC for every entry that follows.

COc1ccc(C(=O)Nc2cnc(Cl)cn2)cc1 ... > 125 µM

// each molecule listed below needs its MIC
1. CC(=O)Oc1ccc(C(=O)Nc2cnccn2)cc1
2. CC(=O)Oc1cccc(C(=O)Nc2cnc(Cl)cn2)c1
3. O=C(Nc1cnc(Cl)cn1)c1ccccc1
4. O=C(Nc1cncc(Cl)n1)c1cccc(Cl)c1

Response:
["> 500 µM", "> 125 µM", "> 500 µM", "> 125 µM"]

###

Test system: Lichtheimia corymbifera 272
experimental-protocol: Antifungal microdilution broth, LC
Assay type: cell-based
cond: Lichtheimia corymbifera, 272, 48 h, read-out: MIC LC
Hi there, I'd appreciate the recorded MIC for every entry that follows.

O=C(Nc1cnc(Cl)cn1)c1ccc(O)cc1 ... > 500 µM
O=C(Nc1cnccn1)c1ccccc1 ... > 500 µM
O=C(Nc1cnccn1)c1cccc(Cl)c1 ... > 125 µM
CC(=O)Oc1cccc(C(=O)Nc2cnccn2)c1 ... > 500 µM
COc1ccccc1C(=O)Nc1cnc(Cl)cn1 ... > 125 µM

Then this compound:
Request: Lab note: need MIC for O=C(Nc1cnccn1)c1ccccc1Cl on Lichtheimia corymbifera 272, anyone have it?
Response: > 500 µM

###

Test system: M. avium ssp. avium CNCTC My 80/72 (ATCC 15769)
experimental-protocol: Antimycobacterial microdilution MABA, M. avium
Assay type: cell-based, Mycobacterium avium
cond: Mycobacterium avium, ATCC15769, pH 6.6, read-out: M. avium ATCC 15769 MIC
metric-name: MIC

These solved cases illustrate the format of a correct answer.
NNC(=O)c1ccncc1 [INH, isoniazid, reference compound] ... 6.25 to 12.5 µg/mL
O=C(Nc1cnc(Cl)cn1)c1ccc(O)cc1 ... > 100 µg/mL
O=C(Nc1cnccn1)c1cccc(Cl)c1 ... > 100 µg/mL
CC(=O)Oc1ccc(C(=O)Nc2cnccn2)cc1 ... > 100 µg/mL
O=C(Nc1cnccn1)c1ccccc1O ... > 100 µg/mL
Cc1ccc(C(=O)Nc2cnccn2)cc1 ... > 100 µg/mL

// each compound listed below needs its MIC
1. O=C(Nc1cnc(Cl)cn1)c1ccccc1
2. CC(=O)Oc1ccccc1C(=O)Nc1cnc(Cl)cn1
3. COc1ccc(C(=O)Nc2cnccn2)cc1

Response:
> 100 µg/mL
50 µg/mL
> 100 µg/mL

// each compound listed below needs its MIC
1. COc1cccc(C(=O)Nc2cnccn2)c1
2. O=C(Nc1cnc(Cl)cn1)c1cccc(Cl)c1

Response:
> 100 µg/mL
> 100 µg/mL
